Test system: MYB mRNA
Experiment: Splicing RT-qPCR assay, MYB canonical (CJ) and alternative (AJ) junction mRNA
Format: cell-based
Settings: Homo sapiens, decrease in canonical junction mRNA, A673 or K562 cells, 24 hours
Protocol: Compounds described herein were used to modulate RNA transcript abundance in cells. The expression of a target mRNA was measured by detecting the formation of an exon-exon junction in the canonical transcript (CJ). A compound mediated exon-inclusion event was detected by observing an increase in formation of a new junction with an alternative exon (AJ). Real-time qPCR assays were used to detect these splicing switches and interrogate the potency of various compounds towards different target genes. […]
pIC50: −log10 of the molar value. Where a name gives a salt, the structure may show the parent alone.

Molecule	Target Entity	pIC50
Cc1cn2cc(NC(=O)c3ccc(N4C[C@@H](C)N[C@@H](C)C4)c4nccnc34)cc(C#N)c2n1	MYB mRNA	6.00 to 7.00
Cc1cn2cc(NC(=O)c3ccc(N4CCN5CCOC[C@@H]5C4)c4nccnc34)cc(F)c2n1	MYB mRNA	6.00 to 7.00
Cc1cn2cc(NC(=O)c3ccc(N4C[C@@H](C)N[C@@H](C)C4)c4ncccc34)cc(F)c2n1	MYB mRNA	< 5.00
Cc1nc2c(F)cc(NC(=O)c3ccc(N4CCNCC4)c4ccnnc34)cc2s1	MYB mRNA	6.00 to 7.00
COc1nc(NC(=O)c2ccc(N3C[C@@H](C)N[C@@H](C)C3)c3nccnc23)cc2oc(C)nc12	MYB mRNA	6.00 to 7.00
Cc1ccc2c(N3CCNCC3)ccc(C(=O)Nc3cc(F)c4nc(C)cn4c3)c2n1	MYB mRNA	> 7.00
Cc1cn2cc(NC(=O)c3ccc(N4CCC(N(C)C)CC4)c4ccnnc34)cc(F)c2n1	MYB mRNA	> 7.00
Cc1cn2cc(NC(=O)c3c(F)cc(N4C[C@@H](C)N[C@@H](C)C4)c4nccnc34)cc(F)c2n1	MYB mRNA	> 7.00
Cc1cnc2c(N3CCNCC3)ccc(C(=O)Nc3cc(F)c4nc(C)cn4c3)c2n1	MYB mRNA	6.00 to 7.00
Cc1cn2cc(NC(=O)c3ccc(N4C[C@@H](C)N[C@@H](C)C4)c4ccnnc34)nc(C)c2n1	MYB mRNA	6.00 to 7.00
COc1nc(NC(=O)c2ccc(N3C[C@@H](C)N[C@@H](C)C3)c3nccnc23)nc2cn(C)nc12	MYB mRNA	5.00 to 6.00
CC(=O)c1cc(NC(=O)c2ccc(N3CCNCC3)c3ccnnc23)cn2cc(C)nc12	MYB mRNA	5.00 to 6.00
Cc1cn2cc(NC(=O)c3ccc([C@@]45CCNCC4C5)c4nccnc34)cc(F)c2n1 (stereo in doubt) [Compound 248, 2,2,2-trifluoroacetate]	MYB mRNA	6.00 to 7.00
CNC1CCN(c2ccc(C(=O)Nc3cc(F)c4nc(C)cn4c3)c3nc(C)ccc23)C1 (stereo not drawn) [Compound 196, 2,2,2-trifluoroacetate]	MYB mRNA	6.00 to 7.00
Cc1cn2cc(NC(=O)c3ccc(N4CCNCC4)c4ccnnc34)[nH]c(=O)c2n1 [Compound 177, trifluoroacetic acid salt]	MYB mRNA	6.00 to 7.00
Cc1cn2cc(NC(=O)c3ccc(N4CCN(C)C5(CC5)C4)c4nccnc34)cc(F)c2n1	MYB mRNA	6.00 to 7.00
CCNC1CCN(c2ccc(C(=O)Nc3cc(F)c4nc(C)cn4c3)c3nc(OCCOC)ccc23)CC1	MYB mRNA	6.00 to 7.00
Cc1cn2cc(NC(=O)c3ccc([C@H]4CCNC4)c4nccnc34)cc(F)c2n1	MYB mRNA	6.00 to 7.00
Cc1cn2cc(NC(=O)c3ccc(N4CCNC5(CC5)C4)c4cccnc34)cc(F)c2n1	MYB mRNA	6.00 to 7.00
CCN1CCN(c2ccc(C(=O)Nc3cc(F)c4nc(C)cn4c3)c3nccnc23)CC12CC2	MYB mRNA	6.00 to 7.00
Cc1cn2nc(NC(=O)c3ccc(N4CCNCC4)c4ccnnc34)cc2c(C)n1	MYB mRNA	5.00 to 6.00
Cc1cn2cc(NC(=O)c3ccc(N4CCC(NC5CC5)CC4)c4ccnnc34)cc(F)c2n1	MYB mRNA	> 7.00
CNC1CCN(c2ccc(C(=O)Nc3cc(F)c4nc(C)cn4c3)c3nccnc23)C1 (stereo not drawn)	MYB mRNA	6.00 to 7.00
Cc1cn2c(C)c(NC(=O)c3ccc(N4C[C@@H](C)N[C@@H](C)C4)c4nccnc34)cc(F)c2n1	MYB mRNA	6.00 to 7.00
COc1nc(NC(=O)c2ccc(N3C[C@H](C)N[C@@H](C)C3)c3nccnc23)cn2cc(C)nc12	MYB mRNA	6.00 to 7.00
Cc1cn2cc(NC(=O)c3ccc(N4CCC(NC(C)(C)C)C4)c4ccnnc34)cc(F)c2n1 (stereo not drawn)	MYB mRNA	5.00 to 6.00
Cc1cn2cc(NC(=O)c3ccc(N4CCNCC4)c4ccnnc34)cc(C#N)c2n1 [Compound 167, trifluoroacetic acid salt]	MYB mRNA	6.00 to 7.00
CNc1nc(NC(=O)c2ccc(N3C[C@@H](C)N[C@@H](C)C3)c3nccnc23)cn2cc(C)nc12	MYB mRNA	5.00 to 6.00
COc1cnc2c(N3CC[C@@H](N(C)C)C3)ccc(C(=O)Nc3cc(F)c4nc(C)cn4c3)c2n1	MYB mRNA	> 7.00
CCc1cc2c(N3CCNCC3)ccc(C(=O)Nc3cc(F)c4nc(C)cn4c3)c2nn1	MYB mRNA	6.00 to 7.00
